assay: Cytotoxicity against yeast cells assessed as growth inhibition after 44 hrs by turbidometric assay; format: toxicity, cell-based; conditions: Saccharomyces cerevisiae

[
  {
    "Molecular String": "CC1(C)N=C(NCc2ccc(C#N)cc2)S[C@]12CC[C@@H](C)CC2",
    "Units Label": "µM",
    "Censoring Sign": "=",
    "IC50 at 44 h": 100
  },
  {
    "Molecular String": "CC1(C)N=C(NCCn2cccc2)S[C@]12CC[C@@H](C)CC2",
    "Units Label": "µM",
    "Censoring Sign": "=",
    "IC50 at 44 h": 100
  },
  {
    "Molecular String": "COc1cc(F)ccc1CNC1=NC(C)(C)[C@]2(CC[C@H](C)CC2)S1",
    "Units Label": "µM",
    "Censoring Sign": ">",
    "IC50 at 44 h": 30
  },
  {
    "Molecular String": "CC1(C)N=C(NCc2ccc3cc[nH]c3c2)S[C@]12CC[C@@H](C)CC2",
    "Units Label": "µM",
    "Censoring Sign": ">",
    "IC50 at 44 h": 30
  },
  {
    "Molecular String": "CC1(C)N=C(NCc2ccco2)S[C@]12CC[C@@H](C)CC2",
    "Units Label": "µM",
    "Censoring Sign": ">",
    "IC50 at 44 h": 30
  },
  {
    "Molecular String": "CCN1CCN(CCNC2=NC(C)(C)[C@]3(CC[C@H](C)CC3)S2)CC1",
    "Units Label": "µM",
    "Censoring Sign": "=",
    "IC50 at 44 h": 100
  },
  {
    "Molecular String": "CC1(C)N=C(NCc2ccccc2O)S[C@]12CC[C@@H](C)CC2",
    "Units Label": "µM",
    "Censoring Sign": "=",
    "IC50 at 44 h": 100
  },
  {
    "Molecular String": "CC1(C)N=C(NCCNc2ccccc2)S[C@]12CC[C@@H](C)CC2",
    "Units Label": "µM",
    "Censoring Sign": "=",
    "IC50 at 44 h": 10
  },
  {
    "Molecular String": "Cc1cnc(CN2CCN(CCNC3=NC(C)(C)[C@]4(CC[C@H](C)CC4)S3)CC2)cn1",
    "Units Label": "µM",
    "Censoring Sign": "=",
    "IC50 at 44 h": 100
  },
  {
    "Molecular String": "COc1ccc(CNC2=NC(C)(C)[C@]3(CC[C@H](C)CC3)S2)cc1Cl",
    "Units Label": "µM",
    "Censoring Sign": ">",
    "IC50 at 44 h": 30
  },
  {
    "Molecular String": "COc1ccc(CNC2=NC(C)(C)[C@]3(CC[C@H](C)CC3)S2)cc1F",
    "Units Label": "µM",
    "Censoring Sign": "=",
    "IC50 at 44 h": 100
  },
  {
    "Molecular String": "CC1(C)N=C(NCc2cccs2)S[C@]12CC[C@@H](C)CC2",
    "Units Label": "µM",
    "Censoring Sign": "=",
    "IC50 at 44 h": 30
  },
  {
    "Molecular String": "COc1ccc(C(=O)NC2=NC(C)(C)[C@]3(CC[C@H](C)CC3)S2)c(OC)c1",
    "Units Label": "µM",
    "Censoring Sign": "=",
    "IC50 at 44 h": 3
  },
  {
    "Molecular String": "CC1(C)N=C(NS(=O)(=O)c2ccccc2)S[C@]12CC[C@@H](C)CC2",
    "Units Label": "µM",
    "Censoring Sign": "=",
    "IC50 at 44 h": 30
  },
  {
    "Molecular String": "CC1(C)N=C(NCc2cccc(F)c2)S[C@]12CC[C@@H](C)CC2",
    "Units Label": "µM",
    "Censoring Sign": "=",
    "IC50 at 44 h": 10
  },
  {
    "Molecular String": "CC1(C)N=C(NCc2ccc3c(c2)OCO3)S[C@]12CC[C@@H](C)CC2",
    "Units Label": "µM",
    "Censoring Sign": ">",
    "IC50 at 44 h": 30
  },
  {
    "Molecular String": "CCCCOc1ccc(CN2CCN(CCNC3=NC(C)(C)[C@]4(CC[C@H](C)CC4)S3)CC2)cc1",
    "Units Label": "µM",
    "Censoring Sign": "=",
    "IC50 at 44 h": 3
  },
  {
    "Molecular String": "COc1cccc(CNC2=NC(C)(C)[C@]3(CC[C@H](C)CC3)S2)c1",
    "Units Label": "µM",
    "Censoring Sign": "=",
    "IC50 at 44 h": 30
  },
  {
    "Molecular String": "CC1(C)N=C(NCCNCc2ccccc2)S[C@]12CC[C@@H](C)CC2",
    "Units Label": "µM",
    "Censoring Sign": "=",
    "IC50 at 44 h": 100
  },
  {
    "Molecular String": "CC1(C)N=C(NCc2ccc(O)c(F)c2)S[C@]12CC[C@@H](C)CC2",
    "Units Label": "µM",
    "Censoring Sign": ">",
    "IC50 at 44 h": 30
  },
  {
    "Molecular String": "COc1ccc(C(=O)NC2=NC(C)(C)[C@]3(CC[C@H](C)CC3)S2)cc1",
    "Units Label": "µM",
    "Censoring Sign": "=",
    "IC50 at 44 h": 10
  },
  {
    "Molecular String": "COc1ccccc1CNC1=NC(C)(C)[C@]2(CC[C@H](C)CC2)S1",
    "Units Label": "µM",
    "Censoring Sign": "=",
    "IC50 at 44 h": 10
  },
  {
    "Molecular String": "CC1(C)N=C(NCc2cc(-c3ccccc3)on2)S[C@]12CC[C@@H](C)CC2",
    "Units Label": "µM",
    "Censoring Sign": "=",
    "IC50 at 44 h": 10
  },
  {
    "Molecular String": "CC1(C)N=C(NC(=O)c2ccccc2)S[C@]12CC[C@@H](C)CC2",
    "Units Label": "µM",
    "Censoring Sign": "=",
    "IC50 at 44 h": 10
  },
  {
    "Molecular String": "CC1(C)N=C(NCc2ccccc2)S[C@]12CC[C@@H](C)CC2",
    "Units Label": "µM",
    "Censoring Sign": "=",
    "IC50 at 44 h": 10
  },
  {
    "Molecular String": "CC1(C)N=C(NCCN2CCN(Cc3ccccc3)CC2)S[C@]12CC[C@@H](C)CC2",
    "Units Label": "µM",
    "Censoring Sign": ">",
    "IC50 at 44 h": 30
  },
  {
    "Molecular String": "COc1ccc(CNC2=NC(C)(C)[C@]3(CC[C@H](C)CC3)S2)cc1",
    "Units Label": "µM",
    "Censoring Sign": "=",
    "IC50 at 44 h": 30
  },
  {
    "Molecular String": "COc1ccc(CNC2=NC(C)(C)[C@]3(CC[C@H](C)CC3)S2)c(OC)c1",
    "Units Label": "µM",
    "Censoring Sign": "=",
    "IC50 at 44 h": 100
  },
  {
    "Molecular String": "CC1(C)N=C(NCc2ccccc2F)S[C@]12CC[C@@H](C)CC2",
    "Units Label": "µM",
    "Censoring Sign": "=",
    "IC50 at 44 h": 10
  },
  {
    "Molecular String": "CC1(C)N=C(NCc2ccc(F)cc2)S[C@]12CC[C@@H](C)CC2",
    "Units Label": "µM",
    "Censoring Sign": "=",
    "IC50 at 44 h": 30
  },
  {
    "Molecular String": "Cc1cccnc1NCCNC1=NC(C)(C)[C@]2(CC[C@H](C)CC2)S1",
    "Units Label": "µM",
    "Censoring Sign": "=",
    "IC50 at 44 h": 100
  },
  {
    "Molecular String": "CC(C)(C)OC(=O)N1CCN(CCNC2=NC(C)(C)[C@]3(CC[C@H](C)CC3)S2)CC1",
    "Units Label": "µM",
    "Censoring Sign": ">",
    "IC50 at 44 h": 30
  }
]
